Where do the numbers come from? From patent US10253015B2.

Kindly state pIC50 for each of the entries shown.
TARGET SYSTEM: IDH1-R132C recombinant protein (Homo sapiens (Human), UniProt O75874, R132C)
Sequence (O75874 whole entry R132C): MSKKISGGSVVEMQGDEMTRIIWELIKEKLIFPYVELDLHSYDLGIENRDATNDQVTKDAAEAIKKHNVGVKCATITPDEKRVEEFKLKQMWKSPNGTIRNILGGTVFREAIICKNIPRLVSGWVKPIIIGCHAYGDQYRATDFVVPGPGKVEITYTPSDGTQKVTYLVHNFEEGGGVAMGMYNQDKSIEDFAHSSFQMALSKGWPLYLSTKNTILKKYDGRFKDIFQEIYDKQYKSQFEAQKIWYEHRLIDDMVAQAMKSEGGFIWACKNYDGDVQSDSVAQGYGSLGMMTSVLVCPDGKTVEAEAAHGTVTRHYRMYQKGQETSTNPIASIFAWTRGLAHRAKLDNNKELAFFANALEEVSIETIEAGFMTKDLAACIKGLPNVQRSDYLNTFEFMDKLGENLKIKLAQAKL
ASSAY SUMMARY: IDH1-R132C enzymatic assay
Assay type: biochemical
CONDITION CONTEXT: inhibition of NADPH consumption, diaphorase/resazurin readout; read-out: Enzyme IDH1 R132C Range IC50
pIC50: −log10 of the molar value.

Param item = `COc1nc(C#N)ccc1N[C@@H](C)c1cc2cc(Cl)ccc2[nH]c1=O` ; retrieve measured pIC50.
5.00 to 6.00

Param item = `Cc1c(-c2ccnc(N[C@@H](C)c3cc4cc(Cl)ccc4[nH]c3=O)c2)cnn1C` ; retrieve measured pIC50.
6.00 to 7.00

Param item = `COc1cc2[nH]c(=O)c([C@H](C)Nc3cc(C)c(C#N)cn3)cc2cc1Cl` ; retrieve measured pIC50.
> 7.00

Param item = `C[C@H](Nc1cc(N2CCOC2=O)ccn1)c1cc2cc(Cl)ccc2[nH]c1=O` ; retrieve measured pIC50.
5.00 to 6.00

Param item = `CC(=O)Nc1ccnc(N[C@@H](C)c2cc3cc(Cl)ccc3[nH]c2=O)c1F` ; retrieve measured pIC50.
6.00 to 7.00

Param item = `Cc1nc(NCc2cc3cc(Cl)c(OCCN4CCN(S(C)(=O)=O)CC4)cc3[nH]c2=O)ccc1C#N` ; retrieve measured pIC50.
6.00 to 7.00

Param item = `C[C@H](Nc1nccc(NCCO)c1F)c1cc2cc(Cl)ccc2[nH]c1=O` ; retrieve measured pIC50.
< 5.00

Param item = `COc1cc2[nH]c(=O)c([C@H](C)Nc3ccc(C#N)c(OC)n3)cc2cc1Cl` ; retrieve measured pIC50.
> 7.00

Param item = C[C@H](Nc1cc(-c2ccnn2C2CCCCO2)ccn1)c1cc2cc(Cl)ccc2[nH]c1=O (stereo partly shown) ; retrieve measured pIC50.
5.00 to 6.00

Param item = `C[C@H](Nc1cc(-c2c[nH]nc2C(F)(F)F)ccn1)c1cc2cc(Cl)ccc2[nH]c1=O` ; retrieve measured pIC50.
< 5.00

Param item = CC(Nc1cc(N2C(=O)OC[C@@H]2C(C)C)ccn1)c1cc2cc(Cl)ccc2[nH]c1=O (stereo partly shown) ; retrieve measured pIC50.
5.00 to 6.00

Param item = `COc1nc(N[C@@H](C)c2cc3cc(Cl)ccc3[nH]c2=O)ccc1C#N` ; retrieve measured pIC50.
6.00 to 7.00

Param item = `COc1cc2[nH]c(=O)c(CNc3ccc(C#N)c(C)n3)cc2cc1Cl` ; retrieve measured pIC50.
< 5.00

Param item = `N#Cc1ccc(NCc2cc3cc(Cl)ccc3[nH]c2=O)nc1` ; retrieve measured pIC50.
< 5.00

Param item = `CC(C)Cn1nccc1-c1ccnc(N[C@@H](C)c2cc3cc(Cl)ccc3[nH]c2=O)c1F` ; retrieve measured pIC50.
< 5.00

Param item = Cc1nc(NC(C)c2cc3cc(Cl)ccc3[nH]c2=O)ccc1C#N (stereo not shown) ; retrieve measured pIC50.
6.00 to 7.00

Param item = `Cc1cscc1-c1ccnc(N[C@@H](C)c2cc3cc(Cl)ccc3[nH]c2=O)c1` ; retrieve measured pIC50.
5.00 to 6.00

Param item = `C[C@H](Nc1cc(N2C(=O)OCC2(C)C)ccn1)c1cc2cc(Cl)ccc2[nH]c1=O` ; retrieve measured pIC50.
5.00 to 6.00

Param item = `Cc1cc(N[C@@H](C)c2cc3cc(Cl)ccc3[nH]c2=O)ncc1C#N` ; retrieve measured pIC50.
6.00 to 7.00

Param item = `Cc1cc(NCc2cc3cc(Cl)ccc3[nH]c2=O)ncc1C#N` ; retrieve measured pIC50.
5.00 to 6.00

Param item = `Cc1cc(-c2ccnc(N[C@@H](C)c3cc4cc(Cl)ccc4[nH]c3=O)c2)n(C)n1` ; retrieve measured pIC50.
6.00 to 7.00

Param item = `C[C@H](Nc1cc(-c2ccn[nH]2)ccn1)c1cc2cc(Cl)ccc2[nH]c1=O` ; retrieve measured pIC50.
5.00 to 6.00

Param item = `CC(C)Cn1nccc1-c1ccnc(N[C@@H](C)c2cc3cc(Cl)ccc3[nH]c2=O)c1` ; retrieve measured pIC50.
5.00 to 6.00

Param item = `Cc1nc(N[C@@H](C)c2cc3cc(Cl)c(OCc4ccccn4)cc3[nH]c2=O)ccc1C#N` ; retrieve measured pIC50.
> 7.00

Param item = Cc1nc(NC(C)c2cc3cc(Cl)c(F)cc3[nH]c2=O)ccc1C#N (stereo not shown) ; retrieve measured pIC50.
6.00 to 7.00

Param item = `Cc1nc(N[C@@H](C)c2cc3cc(Cl)c(F)cc3[nH]c2=O)ccc1C#N` ; retrieve measured pIC50.
6.00 to 7.00

Param item = `C[C@H](Nc1nccc(N2CCOC2=O)c1F)c1cc2cc(Cl)ccc2[nH]c1=O` ; retrieve measured pIC50.
6.00 to 7.00

Param item = `C[C@H](Nc1cc(-c2ccnn2C)ccn1)c1cc2cc(Cl)ccc2[nH]c1=O` ; retrieve measured pIC50.
5.00 to 6.00

====

Kindly state pIC50 for each of the entries shown.
TARGET SYSTEM: IDH1-R132H recombinant protein (Homo sapiens (Human), UniProt O75874, R132H)
Sequence (O75874 whole entry R132H): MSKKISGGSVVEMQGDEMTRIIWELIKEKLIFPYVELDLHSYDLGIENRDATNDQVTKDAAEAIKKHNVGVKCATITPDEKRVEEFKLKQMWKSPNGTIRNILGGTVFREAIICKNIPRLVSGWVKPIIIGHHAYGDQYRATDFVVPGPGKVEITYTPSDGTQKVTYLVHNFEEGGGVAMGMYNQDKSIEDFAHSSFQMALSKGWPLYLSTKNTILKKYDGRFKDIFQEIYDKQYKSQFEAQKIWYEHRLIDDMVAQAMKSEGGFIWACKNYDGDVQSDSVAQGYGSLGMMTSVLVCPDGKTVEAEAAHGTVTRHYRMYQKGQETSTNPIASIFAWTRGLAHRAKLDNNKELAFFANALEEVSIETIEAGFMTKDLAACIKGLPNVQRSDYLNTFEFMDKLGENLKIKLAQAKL
ASSAY SUMMARY: IDH1-R132H enzymatic assay
Type: biochemical
CONDITION CONTEXT: inhibition of NADPH consumption, diaphorase/resazurin readout; read-out: Enzyme IDH1 R132H Range IC50
pIC50: −log10 of the molar value.

Param item = O=c1[nH]c2ccc(Cl)cc2cc1CNc1cc(C(F)(F)F)ccn1 [Compound I-79] ; retrieve measured pIC50.
< 5.00

Param item = C[C@H](Nc1cc(N2CCOC2=O)ccn1)c1cc2cc(Cl)ccc2[nH]c1=O [Compound I-10] ; retrieve measured pIC50.
> 7.00

Param item = C[C@H](Nc1nccc(-c2ccnn2C)c1F)c1cc2cc(Cl)ccc2[nH]c1=O [Compound I-53] ; retrieve measured pIC50.
5.00 to 6.00

Param item = Cc1nc(NC(C)c2cc3cc(Cl)c(F)cc3[nH]c2=O)ccc1C#N (centres unmarked) [Compound I-21] ; retrieve measured pIC50.
> 7.00

Param item = Cc1noc(C)c1-c1ccnc(N[C@@H](C)c2cc3cc(Cl)ccc3[nH]c2=O)c1F [Compound I-54] ; retrieve measured pIC50.
< 5.00

Param item = CC(C)CN(C)c1nc(NCc2cc3cc(Cl)ccc3[nH]c2=O)ccc1C#N [Compound I-65] ; retrieve measured pIC50.
< 5.00

Param item = COc1cc2[nH]c(=O)c([C@H](C)Nc3cc(C)c(C#N)cn3)cc2cc1Cl [Compound I-27] ; retrieve measured pIC50.
> 7.00

Param item = C[C@H](Nc1nccc(-n2ccnc2)c1F)c1cc2cc(Cl)ccc2[nH]c1=O [Compound I-37] ; retrieve measured pIC50.
5.00 to 6.00

Param item = Cc1nc(NC(C)(C)c2cc3cc(Cl)ccc3[nH]c2=O)ccc1C#N [Compound I-32] ; retrieve measured pIC50.
6.00 to 7.00

Param item = Cc1nc(NCc2cc3cc(Cl)c(OCc4ccccn4)cc3[nH]c2=O)ccc1C#N [Compound I-84] ; retrieve measured pIC50.
6.00 to 7.00

Param item = CC(C)Cn1nccc1-c1ccnc(N[C@@H](C)c2cc3cc(Cl)ccc3[nH]c2=O)c1F [Compound I-56] ; retrieve measured pIC50.
< 5.00

Param item = CC(C)n1nccc1-c1ccnc(N[C@@H](C)c2cc3cc(Cl)ccc3[nH]c2=O)c1 [Compound I-44] ; retrieve measured pIC50.
5.00 to 6.00

Param item = C[C@H](Nc1cc(-c2c[nH]nc2C(F)(F)F)ccn1)c1cc2cc(Cl)ccc2[nH]c1=O [Compound I-50] ; retrieve measured pIC50.
5.00 to 6.00

Param item = C[C@H](Nc1cc(N2C(=O)OCC2(C)C)ccn1)c1cc2cc(Cl)ccc2[nH]c1=O [Compound I-13] ; retrieve measured pIC50.
6.00 to 7.00

Param item = Cc1nc(N[C@@H](C)c2cc3cc(Cl)ccc3[nH]c2=O)ccc1C#N [Compound I-4] ; retrieve measured pIC50.
> 7.00

Param item = CC(C)n1nccc1-c1ccnc(N[C@@H](C)c2cc3cc(Cl)ccc3[nH]c2=O)c1F [Compound I-57] ; retrieve measured pIC50.
< 5.00

Param item = COC(=O)c1cccc(NCc2cc3cc(Cl)ccc3[nH]c2=O)n1 [Compound I-73] ; retrieve measured pIC50.
5.00 to 6.00

====

TARGET SYSTEM: IDH1-R132H recombinant protein (Homo sapiens (Human), UniProt O75874, R132H)
ASSAY SUMMARY: IDH1-R132H enzymatic assay
Format: biochemical
CONDITION CONTEXT: inhibition of NADPH consumption, diaphorase/resazurin readout; read-out: Enzyme IDH1 R132H Range IC50
MEASURED PARAMETER: IC50

Param item = `Cc1nc(NCc2cc3cc(Cl)ccc3[nH]c2=O)ccc1C#N` ; retrieve measured IC50.
< 0.1 µM

Param item = `O=c1[nH]c2ccc(Cl)cc2cc1CNc1ccc(F)cn1` ; retrieve measured IC50.
1 to 10 µM

Param item = `Cc1cc(NCCO)cc(N[C@@H](C)c2cc3cc(Cl)ccc3[nH]c2=O)n1` ; retrieve measured IC50.
1 to 10 µM

Param item = `C[C@H](Nc1cc(-c2ccn[nH]2)ccn1)c1cc2cc(Cl)ccc2[nH]c1=O` ; retrieve measured IC50.
1 to 10 µM

Param item = `Cc1cscc1-c1ccnc(N[C@@H](C)c2cc3cc(Cl)ccc3[nH]c2=O)c1F` ; retrieve measured IC50.
1 to 10 µM

Param item = `Cc1n[nH]c(C)c1-c1ccnc(N[C@@H](C)c2cc3cc(Cl)ccc3[nH]c2=O)c1F` ; retrieve measured IC50.
1 to 10 µM

Param item = `Cc1nc(NC2(c3cc4cc(Cl)ccc4[nH]c3=O)CC2)ccc1C#N` ; retrieve measured IC50.
0.1 to 1 µM

Param item = `Cc1cscc1-c1ccnc(N[C@@H](C)c2cc3cc(Cl)ccc3[nH]c2=O)c1` ; retrieve measured IC50.
1 to 10 µM
